Readings of GI50 for the listed compounds
- Test system: SK-BR-3 cancer cells
- PROCEDURE TEXT: Inhibitory activity against proliferation of SK-BR-3 cancer cells (CellTiter-Glo)
- Format: cell-based
- RUN PARAMETERS: Homo sapiens, SK-BR-3, 120 h, ErbB2-overexpressing SK-BR-3 cells, 120 hours after treatment
- Procedure: To evaluate the inhibitory activity of a compound according to the present invention against the proliferation of ErbB2-overexpressing cancer cells, the following experiment were performed. 10% FBS-added McCOY'S 5A was used for SK-BR-3 cancer cells. 20% FBS-added RPMI-1640 was used for BT-474 cancer cells. […] The result values were calculated as a cell growth rate (%) compared to the control group. A graph was plotted using the GraphPad Prism version 8.3.0 program, and GI50 values were calculated.

COMPOUND: C=CC(=O)Nc1cc(Nc2cc(N3OCC[C@@H]3c3cccc(-c4cccc(F)c4)c3)ncn2)c(OC)cc1N1CCN(C2CC2)[C@@H](C)C1
GI50: < 0.05 µM

COMPOUND: C=CC(=O)Nc1cc(Nc2cc(N3OCCC3c3cccc(C#Cc4ccccc4)c3)ncn2)c(OC)cc1N1CCC(N2CCN(C3CC3)CC2)CC1 (stereo not shown)
GI50: 0.05 to 0.5 µM

COMPOUND: C=CC(=O)Nc1cc(Nc2cc(N3OCC[C@@H]3c3cccc(-c4ccn5ncnc5c4)c3)ncn2)c(OC)cc1N1CCN(C)CC1
GI50: < 0.05 µM

COMPOUND: C=CC(=O)Nc1cc(Nc2cc(N3OCC[C@@H]3c3cccc(-c4ccc(F)cc4F)c3)ncn2)c(OC)cc1N(C)CCN(C)C
GI50: < 0.05 µM

COMPOUND: C=CC(=O)Nc1cc(Nc2cc(N3OCC[C@@H]3c3cc(F)cc(-c4ccsc4)c3)ncn2)c(OC)cc1N(C)CCN(C)C
GI50: < 0.05 µM

COMPOUND: C=CC(=O)Nc1cc(Nc2cc(N3OCC[C@@H]3c3cc(F)cc(Oc4cccc(F)c4)c3)ncn2)c(OC)cc1N1CCOCC1
GI50: < 0.05 µM

COMPOUND: C=CC(=O)Nc1cc(Nc2cc(N3OCC[C@@H]3c3cc(F)cc(Oc4cccc(F)c4)c3)ncn2)c(OC)cc1N(C)CCN(C)C
GI50: 0.05 to 0.5 µM

COMPOUND: C=CC(=O)Nc1cc(Nc2cc(N3OCC[C@@H]3c3ccc(C)c(OCc4cccc(F)c4)c3)ncn2)c(OC)cc1F
GI50: 0.5 to 5 µM

COMPOUND: C=CC(=O)Nc1cc(Nc2cc(N3OCC[C@@H]3c3cccc(-c4cccc(F)c4)c3)ncn2)c(OC)cc1N1CCN(C)CC1
GI50: < 0.05 µM

COMPOUND: C=CC(=O)Nc1cc(Nc2cc(N3OCC[C@@H]3c3cccc(-c4cccc(F)c4)c3)ncn2)c(OC)cc1N1CCN(C)C(=O)C1
GI50: < 0.05 µM

COMPOUND: C=CC(=O)Nc1cc(Nc2cc(N3OCC[C@@H]3c3cc(F)cc(Oc4ccn(C)n4)c3)ncn2)c(OC)cc1N(C)CCN(C)C
GI50: < 0.05 µM

COMPOUND: C=CC(=O)Nc1cc(Nc2cc(N3OCC[C@@H]3c3cccc(-c4ccccc4)c3)ncn2)c(OC)cc1N1CCC(N2CCN(C3CC3)CC2)CC1
GI50: < 0.05 µM

COMPOUND: C=CC(=O)Nc1cc(Nc2cc(N3OCCC3c3cccc(-c4ccc5ncnn5c4)c3)ncn2)c(OC)cc1N1CCN(C)CC1 (stereo not shown)
GI50: < 0.05 µM

COMPOUND: C=CC(=O)Nc1cc(Nc2cc(N3OCC[C@@H]3c3cccc(OCc4cccc(F)c4)c3)ncn2)c(OC)cc1N1CCN(C)CC1
GI50: 0.05 to 0.5 µM

COMPOUND: C=CC(=O)Nc1cc(Nc2cc(N3OCC[C@@H]3c3cc(F)cc(OCc4ccccn4)c3)ncn2)c(OC)cc1N1CCN(C)CC1
GI50: < 0.05 µM

COMPOUND: C=CC(=O)Nc1cc(Nc2cc(N3OCC[C@@H]3c3cccc(C(=O)NC(C)C)c3)ncn2)c(OC)cc1N1CCC(N2CCN(C3CC3)CC2)CC1
GI50: < 0.05 µM

COMPOUND: C=CC(=O)Nc1cc(Nc2cc(N3OCC[C@@H]3c3ccc(F)c(Oc4cccc(C(F)(F)F)c4)c3)ncn2)c(OC)cc1N(C)CCN(C)C
GI50: 0.05 to 0.5 µM

COMPOUND: C=CC(=O)Nc1cc(Nc2cc(N3OCC[C@@H]3c3cccc(-c4cccc(F)c4)c3)ncn2)c(OC)cc1N1CCN2CCCC2C1 (stereo partly shown)
GI50: 0.05 to 0.5 µM

COMPOUND: C=CC(=O)Nc1cc(Nc2cc(N3OCC[C@@H]3c3ccc(F)c(-c4cccc(F)c4)c3)ncn2)c(OC)cc1N(C)CCN(C)C
GI50: < 0.05 µM

COMPOUND: C=CC(=O)Nc1cc(Nc2cc(N3OCC[C@@H]3c3cccc(-c4cccc(F)c4)c3)ncn2)c(OC)cc1N1CCO[C@@H](C)C1
GI50: < 0.05 µM

COMPOUND: C=CC(=O)Nc1cc(Nc2cc(N3OCC[C@@H]3c3cc(F)cc(Oc4cccc(F)c4)c3)ncn2)c(OC)cc1N1CCN(C)[C@H](C)C1
GI50: < 0.05 µM

COMPOUND: C=CC(=O)Nc1cc(Nc2cc(N3OCC[C@@H]3c3cc(F)cc(-c4cccc(F)c4)c3)ncn2)c(OC)cc1N1CCC(N2CCN(C3CC3)CC2)CC1
GI50: < 0.05 µM

COMPOUND: C=CC(=O)Nc1cc(Nc2cc(N3OCC[C@@H]3c3cccc(C(=O)NC(C)C)c3)ncn2)c(OC)cc1N(C)CCN(C)C
GI50: < 0.05 µM

COMPOUND: C=CC(=O)Nc1cc(Nc2cc(N3OCC[C@@H]3c3cccc(-c4cccc(F)c4)c3)ncn2)c(OC)cc1N1CCN(C2COC2)CC1
GI50: < 0.05 µM

COMPOUND: C=CC(=O)Nc1cc(Nc2cc(N3OCC[C@@H]3c3cccc(-c4cccc(F)c4)c3)ncn2)c(OC)cc1N1CC2(C1)CN(S(C)(=O)=O)C2
GI50: < 0.05 µM
